# testProtocol: kanamycin survival loss of SKKanGAS strain – BacTiter-Glo luminescence, streptokinase expression inhibitor project, primary screen (AID 1662);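 also: strain carries kanamycin resistance gene driven by streptokinase promoter and grows in 40 µg/ml kanamycin; loss of luminescence reflects streptokinase promoter inhibition or plain growth inhibition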
# testParameters: S. pyogenes SKKanGAS, kanamycin growth, 6 h, at 7.5 µM
About 4,000 (1.3%) of roughly 300,000 compounds were called active.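 The calls were made as follows: active = mean replicate score, as percent of positive control median, at least 50; inconclusive = mean below 50 but one replicate at or above 50; inactive = mean and every replicate below 50.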 The sample holds actives, similar compounds and a random draw of the others, so the mix is not that of the screen.
Allowed answers: Y for active, N for inactive

Identify the outcome logged in this assay for the molecule shown: Cc1cccc(-n2c(SCC(N)=O)nc3c(c2=O)C2(CCCCC2)Cc2ccccc2-3)c1
N

Identify the outcome logged in this assay for the molecule shown: Cc1cc(N/N=C\c2ccc(Br)cc2)nc(-n2nc(C)cc2C)n1
Y

Identify the outcome logged in this assay for the molecule shown: COc1cc(OC)c(/C=N/NC(=O)c2ccc([N+](=O)[O-])cc2)cc1Br
N

Identify the outcome logged in this assay for the molecule shown: O=C(c1cccc(F)c1)N1CCN(c2ccc([N+](=O)[O-])c3cccnc23)CC1
N

Identify the outcome logged in this assay for the molecule shown: Cc1nc(Cl)cc(N/N=C/c2ccccc2)n1
N

Identify the outcome logged in this assay for the molecule shown: O=C(NCCS(=O)(=O)N1CCN(c2ccccc2)CC1)c1ccco1
N
